From: patent US9789181B2

Reported IC50 values for a set of sequences
Biological target: HLA DRB1 *0301 (Homo sapiens, UniProt P01903+P01911, A100K/A102G/A103R/A169T/F55Y/I96L/K41T/L162R/M171V/P40S/Q125H/Q178H/Q39Y/R42S/S66N/T106N/T262R/W38E/Y61H)
Sequence (P01903 26-254 limits assumed, other chains not shown): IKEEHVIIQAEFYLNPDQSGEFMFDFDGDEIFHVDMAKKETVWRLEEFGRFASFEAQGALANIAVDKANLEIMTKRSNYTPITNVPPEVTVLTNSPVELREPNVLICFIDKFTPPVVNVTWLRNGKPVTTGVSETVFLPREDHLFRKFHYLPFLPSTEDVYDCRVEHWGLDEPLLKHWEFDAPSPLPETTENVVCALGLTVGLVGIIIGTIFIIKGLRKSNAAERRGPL
Test: IC50nM to purified HLA | DRB1 *0301
Where no end group is shown, it is not given here.
Measured parameter: IC50 (nM)

> print(dat)
                biopolymer.sequence  measured.parameter  unit.string  recorded.result
 1  AAADFVAAYTLHAAA [SEQ ID NO: 42]                IC50           nM              286
 2  AAANFVAAYTLHAAA [SEQ ID NO: 52]                IC50           nM              171
 3  AAAHFVAAFTLHAAA [SEQ ID NO: 28]                IC50           nM              228
 4  AAADFVAAWTLKAAA [SEQ ID NO: 40]                IC50           nM              330
 5  AAADFVAAWTLHAAA [SEQ ID NO: 41]                IC50           nM              249
 6  AAAEFVAAWTLHAAA [SEQ ID NO: 46]                IC50           nM              134
 7  AAAKFVAAWTLKADA [SEQ ID NO: 30]                IC50           nM             1160
 8  AAAEFVAAYTLHAAA [SEQ ID NO: 47]                IC50           nM              144
 9  AAANFVAAWTLHAAA [SEQ ID NO: 51]                IC50           nM              147
10  AAANFVAAWTLKAAA [SEQ ID NO: 50]                IC50           nM              372
11  AAAHFVAANTLHAAA [SEQ ID NO: 29]                IC50           nM              361
12  AAADFVAANTLHAAA [SEQ ID NO: 44]                IC50           nM              731
13  AAAEFVAAWTLKAAA [SEQ ID NO: 45]                IC50           nM              169
14  AAAHFVAANTLKADA [SEQ ID NO: 34]                IC50           nM             3120
15  AAADFVAAFTLHAAA [SEQ ID NO: 43]                IC50           nM              746

====

Biological target: HLA DRB1 *0101 (Homo sapiens, UniProt P01903+P01911, A100R/D57E/F55L/F60I/F76Y/I96L/L162R/M171V/P40L/Q125E/R42F/V115G/Y59C)
Assay: IC50nM to purified HLA | DRB1 *0101
Where no end group is shown, it is not given here.
API: label(entry) gives Y if the entry's IC50 is strictly smaller than 6 nM; on equality or larger values it gives N.

> print(dat)
               biopolymer.sequence  classification
1  AAANFVAAFTLHAAA [SEQ ID NO: 53]               Y
2  AAAIFVAAFTLHAAA [SEQ ID NO: 71]               N
3  AAAIFVAAYTLHAAA [SEQ ID NO: 70]               Y
4  AAANFVAAWTLKAEA [SEQ ID NO: 59]               Y
5  AAANFVAAWTLKADA [SEQ ID NO: 55]               N
6  AAANFVAAFTLKADA [SEQ ID NO: 57]               N
